# Assay summary: NCI Yeast Anticancer Drug Screen. Data for the sgs1 mgt1 strain (AID 161);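 note: 0% = growth of cultures given vehicle only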
# Condition parameters: S. cerevisiae sgs1 mgt1 strain, at 5.0 µM (retest, dose inferred, filed as 0.5), stronger effect = higher value
Compounds without any hit were thinned out: in the full panel of roughly 79,000, 15% have a hit.
Attribute: growth inhibition
Express the result in % but write the number alone.

// below: answered molecules
1) CCCCCCCCCCS(=O)(=O)Nc1ccc(C(=O)NN)cc1 ... 42
2) CCCCNCCC1(c2ccccc2)C(=O)Oc2ccccc21 (stereo not given) ... -5
3) CC(C)c1ccc(C2C3=C(N=C4SCC(=O)N42)C(=O)c2ccccc23)cc1 (stereo not given) ... -6
4) CC(C)Cc1cc(O)cc2ccccc12 ... 3
5) CCCCCCc1cc(C(=O)N/N=C\c2cccc([N+](=O)[O-])c2)c2ccccc2n1 ... 2
6) O=C1CC(c2ccccc2)c2c(ccc3ccccc23)O1 (stereo not given) ... -1
7) COC1=C(C)C(=O)C2=C(C1=O)C1C3CC4=C(C(=O)C(OC)=C(C)C4=O)C(CNC(=O)C(C)=O)N3C(C#N)C(C2)N1C (stereo not given) ... 35
8) NC(Cc1nn[nH]n1)C(=O)O (stereo not given) ... -16

Quote growth inhibition reported for COC1/C=C\OC2(C)Oc3c(C)c(O)c4c(c3C2=O)C2=NC(C)(C)N(c3ccccc3)C2=C(NC(=O)/C(C)=C\C=C\C(C)C(O)C(C)C(O)C(C)C(OC(C)=O)C1C)C4=O (stereo not given) please. -2

Hello, please tell me recorded growth inhibition for this one: CS(=O)(=O)OCCN(CCOS(C)(=O)=O)c1ccc(C=Nc2ccc3oc(=O)ccc3c2)cc1 22
